Target: Heat shock factor protein 1 (Homo sapiens)
Assay: ATG_HSE_CIS: Attagene CIS-FACTORIAL HepG2 Assay for human Heat Shock Transcription Factor 1 (HSE) (AID 2282953)
Settings: HepG2 HSE cis-reporter, Attagene RNA transcription; actives raise or lower the signal
Experimental: ATG_CIS is a cell-based, multiplexed-readout assay that uses HepG2, a human liver cell line, with measurements taken at 24 hours after chemical dosing in a 24-well plate.ATG_HSE_CIS is one of 52 assay component(s) measured or calculated from the ATG_CIS assay. […] This assay endpoint, ATG_HSE_CIS, was analyzed with bidirectional fitting relative to DMSO as the negative control and baseline of activity. […]
Activity calls are given as the source filed them. Rule for the calls: active = hit-call score of the fitted dose curve at least 0.9, where 1 is the maximum; inactive = score below 0.9.
measurement name: AC50

The examples below pair each entry with its known result.
compound	target desc	AC50
CCCCC(CC)CN1C(=O)C2C3C=CC(C3)C2C1=O (stereo unspecified)	Heat shock factor protein 1 (Homo sapiens)	inactive
COC(=O)c1ccccc1S(=O)(=O)NC(=O)Nc1nc(OC(F)F)cc(OC(F)F)n1	Heat shock factor protein 1 (Homo sapiens)	inactive
CCOC(=O)NCCOc1ccc(Oc2ccccc2)cc1	Heat shock factor protein 1 (Homo sapiens)	78.1 µM (active)
CSC(=O)c1cccc2nnsc12	Heat shock factor protein 1 (Homo sapiens)	inactive
COC(=O)c1c(Cl)nn(C)c1S(=O)(=O)NC(=O)Nc1nc(OC)cc(OC)n1	Heat shock factor protein 1 (Homo sapiens)	inactive

Next:
Req: Retrieve AC50 measured for `CCNc1nc(N)nc(Cl)n1` and print it.
Resp: inactive
